// reported IC50 per item
Target: Cholinesterase (Equus caballus, UniProt P81908)
Sequence (P81908 whole entry): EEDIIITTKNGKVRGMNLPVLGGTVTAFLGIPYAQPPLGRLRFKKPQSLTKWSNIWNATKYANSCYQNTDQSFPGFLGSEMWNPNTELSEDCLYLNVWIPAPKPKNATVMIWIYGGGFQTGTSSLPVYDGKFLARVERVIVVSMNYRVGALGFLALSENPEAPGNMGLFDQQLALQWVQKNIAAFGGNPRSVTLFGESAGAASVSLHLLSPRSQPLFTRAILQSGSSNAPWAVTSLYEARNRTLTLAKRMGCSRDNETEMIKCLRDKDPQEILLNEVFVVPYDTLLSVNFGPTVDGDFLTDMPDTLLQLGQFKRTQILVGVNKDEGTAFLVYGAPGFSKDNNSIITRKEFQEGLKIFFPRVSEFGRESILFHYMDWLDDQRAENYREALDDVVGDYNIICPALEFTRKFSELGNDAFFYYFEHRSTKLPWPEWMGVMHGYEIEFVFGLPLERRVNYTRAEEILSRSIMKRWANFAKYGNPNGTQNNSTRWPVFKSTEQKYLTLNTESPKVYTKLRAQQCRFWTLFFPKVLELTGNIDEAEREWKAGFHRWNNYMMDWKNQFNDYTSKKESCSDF

[
  {
    "Smiles String": "COc1ccc(CC(=O)OCC(=O)Nc2c3c(nc4ccccc24)CCCC3)c(OC)c1OC",
    "Target Or Test System": "Cholinesterase (Equus caballus, UniProt P81908)",
    "Uom": "nM",
    "IC50": 364
  },
  {
    "Smiles String": "COc1ccc(CC(=O)OCC(=O)Nc2c3c(nc4ccccc24)CCCC3)cc1OC",
    "Target Or Test System": "Cholinesterase (Equus caballus, UniProt P81908)",
    "Uom": "nM",
    "IC50": 554
  },
  {
    "Smiles String": "O=C(COC(=O)Cc1ccc(Cl)cc1)Nc1c2c(nc3ccccc13)CCCC2",
    "Target Or Test System": "Cholinesterase (Equus caballus, UniProt P81908)",
    "Uom": "nM",
    "IC50": 218
  },
  {
    "Smiles String": "COc1cc(C(=O)OCC(=O)Nc2c3c(nc4ccccc24)CCCC3)cc(OC)c1OC",
    "Target Or Test System": "Cholinesterase (Equus caballus, UniProt P81908)",
    "Uom": "nM",
    "IC50": 329
  },
  {
    "Smiles String": "O=C(COC(=O)/C=C/c1ccc(Cl)cc1)Nc1c2c(nc3ccccc13)CCCC2",
    "Target Or Test System": "Cholinesterase (Equus caballus, UniProt P81908)",
    "Uom": "nM",
    "IC50": 542
  }
]

Where do the numbers come from? From ChEMBL document CHEMBL3797034.
